Please provide measured pIC50 for the entries that follow.
test system: monocyte-free human T cells; test: Inhibition of 5-HT-dependent T cell proliferation; type: cell-based; conditions: PWM (1:200) and 5-HT (100 μM) stimulated T cells, 3H-thymidine incorporation on day 7, tested at 33 μM-0.1 μM
// pIC50 here means minus log10 of the molar concentration (mol/L)

GET /values?readout=pIC50&item= CC12c3ccccc3C(c3ccccc31)C1CN(CCCN3CCN(C(c4ccccc4)c4ccccc4)CC3)CC12 (stereo not shown)
6.30

GET /values?readout=pIC50&item= c1ccc2c(c1)C1c3ccccc3C2C2CN(CCCN3CCN(C4CCCC4)CC3)CC12 (stereo not shown)
5.22
